Target: Alkaline phosphatase, tissue-nonspecific isozyme (Homo sapiens) (UniProt P05186)
Sequence (P05186 whole entry, looked up): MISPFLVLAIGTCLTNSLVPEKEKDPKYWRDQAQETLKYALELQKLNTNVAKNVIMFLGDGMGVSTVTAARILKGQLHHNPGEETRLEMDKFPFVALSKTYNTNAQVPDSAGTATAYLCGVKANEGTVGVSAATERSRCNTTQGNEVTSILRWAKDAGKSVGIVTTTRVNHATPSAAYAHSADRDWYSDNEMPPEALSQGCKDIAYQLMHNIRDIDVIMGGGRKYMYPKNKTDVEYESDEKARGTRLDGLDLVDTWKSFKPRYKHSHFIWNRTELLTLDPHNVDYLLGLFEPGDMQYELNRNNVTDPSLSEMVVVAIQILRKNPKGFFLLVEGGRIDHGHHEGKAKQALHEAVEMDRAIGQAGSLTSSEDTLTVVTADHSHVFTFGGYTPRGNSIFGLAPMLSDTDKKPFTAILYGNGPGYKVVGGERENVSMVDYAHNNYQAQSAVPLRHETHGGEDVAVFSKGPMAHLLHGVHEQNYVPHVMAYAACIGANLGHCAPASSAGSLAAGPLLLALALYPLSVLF
Experiment: human TNAP enzyme inhibitors, primary screen, biochemical, luminescent, high phosphate acceptor level, uHTS (AID 1135);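 further: plate controls were DMSO wells for no effect and EDTA-quenched wells as full inhibition for full effect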
Details: purified TNAP, CDP-star luminescence, 1 M DEA; at 20 µM; hits give high values
Among all 200,000 compounds or so, about 65 (0.03%) were called active. The list comes from a sample in which actives are over-represented; it also holds close analogues and randomly drawn compounds.
Listed below: inhibition values for each entry.

| molecule | system-tested | inhibition |
| --- | --- | --- |
| O=C(Nc1ccc2c(c1)OCO2)c1sc2cc(Cl)ccc2c1Cl | Alkaline phosphatase, tissue-nonspecific isozyme (Homo sapiens) (UniProt P05186) | 0.3% (inactive) |
| COc1ccc([N+](=O)[O-])cc1NC(=O)CC1SC(=Nc2cccc(C)c2C)N(/N=C(\C)c2ccc(C)cc2)C1=O (stereo unspecified) | Alkaline phosphatase, tissue-nonspecific isozyme (Homo sapiens) (UniProt P05186) | -3.9% (inactive) |
| CCNS(=O)(=O)c1ccc(NC(=O)c2cncc(Br)c2)cc1 | Alkaline phosphatase, tissue-nonspecific isozyme (Homo sapiens) (UniProt P05186) | -1% (inactive) |

Problem: Using the record for CCN(CC)P(=O)(Nc1ccc(SC(F)F)cc1)c1ccc(N(C)C)cc1NC(=O)c1ccco1 (stereo unspecified) , report its inhibition.
Solution: -7.3% (inactive)

Problem: I'd like to know its inhibition. The molecule in question is Cc1ccc(CN2CCN(/N=C/c3ccco3)CC2)c(C)c1
Solution: -2% (inactive)

Problem: # input molecule: O=C(Nc1cccnc1)c1cc2cc(Br)ccc2oc1=O ; wanted: its inhibition
Solution: -1.6% (inactive)

Problem: // query inhibition value for entry O=c1oc(/C=C/c2ccccc2)nc2ccccc12
Solution: 0% (inactive)

Problem: Item Cn1c(=N)n(CC(O)c2cccs2)c2ccccc21 (stereo unspecified) has what recorded inhibition?
Solution: -2% (inactive)

Problem: What value of inhibition has been reported for the following molecule? O=C(NCCN1C(=O)S/C(=C\c2cccnc2)C1=O)c1cccc(OC(F)F)c1
Solution: -0.3% (inactive)

Problem: Look up inhibition: COC(=O)C(C(=O)Nc1cccc(Cl)c1C)C1CCCC1 (stereo unspecified)
Solution: -6.6% (inactive)

Problem: Query: inhibition; subject: CC1(C)CC(=O)CC2(C1)NCC(c1ccccc1Cl)c1c2[nH]c2ccccc12 (stereo unspecified)
Solution: -3.4% (inactive)
